Examples of compounds with documented pIC50 follow.
# Tested on: tubulin
# measurement_notes: Tubulin polymerisation inhibitor (TPI) assay
# Assay type: biochemical
# test_parameters: concentration required to inhibit the extent of tubulin polymerisation by 50%
pIC50: −log10 of the molar value.

Solved entries (count: 2):
COc1ccc(-c2c(-c3cc(OC)c(OC)c(OC)c3)oc3[nH]c(=O)ncc23)cc1 [Example 2] ... 5.00 to 5.40
COc1ccc(-c2oc3cc(OC)cnc3c2-c2cc(OC)c(OC)c(OC)c2)cc1 [Example 23] ... ~5.00

QUERY: # get_value(readout='pIC50', item= COc1ccc(-c2oc3nc(OC)cnc3c2C(=O)c2cc(OC)c(OC)c(OC)c2)cc1 [Example 25] )
RESULT: > 5.40

QUERY: Moving on to the next compound: COc1ccc(-c2oc3cc(OC)ncc3c2C(=O)c2cc(OC)c(OC)c(OC)c2)cc1 [Example 24]
RESULT: > 5.40
